Target: Carbonic anhydrase 12 (Homo sapiens)
Sequence (O43570 whole entry): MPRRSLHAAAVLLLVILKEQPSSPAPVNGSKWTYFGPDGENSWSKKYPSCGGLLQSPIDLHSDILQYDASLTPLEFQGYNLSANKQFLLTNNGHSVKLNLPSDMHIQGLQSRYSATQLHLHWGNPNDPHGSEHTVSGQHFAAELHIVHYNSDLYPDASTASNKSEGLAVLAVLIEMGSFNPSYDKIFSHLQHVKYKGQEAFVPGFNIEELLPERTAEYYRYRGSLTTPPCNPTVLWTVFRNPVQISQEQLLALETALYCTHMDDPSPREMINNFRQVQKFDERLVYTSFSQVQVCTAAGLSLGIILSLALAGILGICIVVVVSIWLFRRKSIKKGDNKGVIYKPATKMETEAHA
Assay: Binding affinity to recombinant human CA12 by DSF-based fluorescence thermal shift assay
So I've got a bunch of compounds here, and I need their Kd values.
Give bare numbers, in µM.

Previously resolved entries follow.
Supply Kd value. Item: Cc1cc(N2CC(C(=O)N/N=C/c3ccc(Br)cc3)CC2=O)c(Cl)c(C)c1S(N)(=O)=O (stereo not given)
1.4

Supply Kd value. Item: Cc1cc(C)n(C(=O)C2CC(=O)N(c3cc(C)c(S(N)(=O)=O)c(C)c3)C2)n1 (stereo not given)
8.3

Supply Kd value. Item: Cc1cc(NCC(CC(=O)O)c2n[nH]c(=S)n2-c2ccccc2)c(Cl)c(C)c1S(N)(=O)=O (stereo not given)
2.5

# input for lookup
Supply Kd value. Item: NS(=O)(=O)c1ccc(NC(=O)C2CC(=O)N(c3ccccc3)C2)cc1 (stereo not given)
5.6

---

Target: Carbonic anhydrase 13 (Homo sapiens, UniProt Q8N1Q1)
Sequence (Q8N1Q1 whole entry): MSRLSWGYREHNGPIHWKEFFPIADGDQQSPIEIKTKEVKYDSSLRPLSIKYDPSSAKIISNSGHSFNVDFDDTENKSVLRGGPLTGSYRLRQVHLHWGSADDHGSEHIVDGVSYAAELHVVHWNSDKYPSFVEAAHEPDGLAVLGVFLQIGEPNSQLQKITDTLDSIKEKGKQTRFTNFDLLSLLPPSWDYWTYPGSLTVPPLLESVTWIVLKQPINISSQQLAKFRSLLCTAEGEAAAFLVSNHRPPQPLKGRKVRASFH
Assay: Binding affinity to recombinant human CA13 by DSF-based fluorescence thermal shift assay
pKd: −log10 of the molar value.
reported-property: pKd

Previously resolved entries follow.
Give measured pKd for Cc1cc(C)cc(NC(=O)C2CC(=O)N(c3ccccc3)C2)c1 (centres undefined) (Carbonic anhydrase 13 (Homo sapiens, UniProt Q8N1Q1)).
≤ 3.70

Give measured pKd for COC(=O)C1CC(=O)N(c2c(Br)c(C)c(S(N)(=O)=O)c(C)c2Br)C1 (centres undefined) (Carbonic anhydrase 13 (Homo sapiens, UniProt Q8N1Q1)).
≤ 3.70

Give measured pKd for Cc1cc(C)cc(N2CC(C(=O)O)CC2=O)c1 (centres undefined) (Carbonic anhydrase 13 (Homo sapiens, UniProt Q8N1Q1)).
≤ 3.70

# input for lookup
Give measured pKd for Cc1c(Br)c(N2CC(C(=O)N/N=C/c3ccc([N+](=O)[O-])cc3)CC2=O)c(Br)c(C)c1S(N)(=O)=O (centres undefined) (Carbonic anhydrase 13 (Homo sapiens, UniProt Q8N1Q1)).
≤ 3.70

---

Molecular target: Carbonic anhydrase 1 (Homo sapiens)
Sequence (P00915 whole entry): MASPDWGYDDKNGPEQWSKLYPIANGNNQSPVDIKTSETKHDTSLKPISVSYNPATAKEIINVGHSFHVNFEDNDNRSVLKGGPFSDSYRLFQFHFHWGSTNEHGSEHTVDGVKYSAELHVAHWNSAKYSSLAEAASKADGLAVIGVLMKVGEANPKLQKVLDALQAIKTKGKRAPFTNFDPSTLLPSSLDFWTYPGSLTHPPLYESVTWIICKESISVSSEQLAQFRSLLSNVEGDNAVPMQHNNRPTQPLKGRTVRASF
Assay: Binding affinity to recombinant human CA1 by DSF-based fluorescence thermal shift assay
pKd: −log10 of the molar value.
reported-property: pKd

Previously resolved entries follow.
Supply pKd value. Item: Cc1cc(N2CC(C(=O)O)CC2=O)cc(C)c1S(=O)(=O)Cl (centres undefined)
≤ 3.70

Supply pKd value. Item: Cc1cc(C)cc(NC(=O)C2CC(=O)N(c3ccccc3)C2)c1 (centres undefined)
≤ 3.70

Supply pKd value. Item: Cc1c(Br)c(N2CC(C(=O)NN)CC2=O)c(Br)c(C)c1S(N)(=O)=O (centres undefined)
≤ 3.70

# input for lookup
Supply pKd value. Item: Cc1c(Br)c(N2CC(C(=O)N/N=C/c3ccc([N+](=O)[O-])cc3)CC2=O)c(Br)c(C)c1S(N)(=O)=O (centres undefined)
≤ 3.70

---

Biological target: Carbonic anhydrase 6 (Homo sapiens, UniProt P23280)
Sequence (P23280 whole entry): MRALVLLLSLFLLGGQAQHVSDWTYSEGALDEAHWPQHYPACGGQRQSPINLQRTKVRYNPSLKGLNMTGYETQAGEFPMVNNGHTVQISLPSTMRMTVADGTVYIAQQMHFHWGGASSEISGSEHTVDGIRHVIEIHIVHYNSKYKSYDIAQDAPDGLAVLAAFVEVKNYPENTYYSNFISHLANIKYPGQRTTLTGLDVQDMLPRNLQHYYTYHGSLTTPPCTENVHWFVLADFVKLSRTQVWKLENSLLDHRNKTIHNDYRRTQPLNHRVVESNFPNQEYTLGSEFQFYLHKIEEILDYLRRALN
Assay: Binding affinity to recombinant human CA6 by DSF-based fluorescence thermal shift assay
reported-property: Kd

Previously resolved entries follow.
Supply Kd value. Item: Cc1cc(NCC(CC(=O)O)c2n[nH]c(=S)n2-c2ccccc2)cc(C)c1S(N)(=O)=O (stereo not drawn)
≥ 200 µM

Supply Kd value. Item: Cc1c(Br)c(N2CC(C(=O)O)CC2=O)c(Br)c(C)c1S(N)(=O)=O (stereo not drawn)
≥ 200 µM

# input for lookup
Supply Kd value. Item: Cc1cc(C)cc(NC(=O)C2CC(=O)N(c3ccccc3)C2)c1 (stereo not drawn)
≥ 200 µM

---

Molecular target: UniProt Q9Y2D0
Sequence (Q9Y2D0 whole entry): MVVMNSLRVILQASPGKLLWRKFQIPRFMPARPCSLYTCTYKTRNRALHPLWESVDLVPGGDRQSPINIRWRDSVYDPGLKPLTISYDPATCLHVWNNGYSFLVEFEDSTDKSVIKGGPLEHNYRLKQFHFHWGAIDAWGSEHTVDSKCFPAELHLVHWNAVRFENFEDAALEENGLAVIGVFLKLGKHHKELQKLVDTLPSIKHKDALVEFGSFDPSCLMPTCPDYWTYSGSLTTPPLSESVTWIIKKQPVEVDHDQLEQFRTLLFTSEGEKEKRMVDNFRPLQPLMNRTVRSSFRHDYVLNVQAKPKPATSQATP
Assay: Binding affinity to recombinant full length N-terminal His6x-tagged human CA5B expressed in Escherichia coli Rosetta 2 (DE3) by DSF-based fluorescence thermal shift assay
In plain terms, low Kd, meaning strictly below 500 nM, gives yes (1), and everything else gives no (0).

Take the molecule Cc1cc(C)n(NC(=O)C2CC(=O)N(c3cc(C)c(S(N)(=O)=O)c(C)c3Cl)C2)n1 (centres undefined) and say whether its Kd is less than 500 nM.
yes (1)

Take the molecule COC(=O)C1CC(=O)N(c2ccc(S(N)(=O)=O)cc2)C1 (centres undefined) and say whether its Kd is less than 500 nM.
no (0)

Take the molecule NS(=O)(=O)c1ccc(NC(=O)C2CC(=O)N(c3ccccc3Br)C2)cc1 (centres undefined) and say whether its Kd is less than 500 nM.
yes (1)

Take the molecule Cc1c(Br)c(N2CC(C(=O)O)CC2=O)c(Br)c(C)c1S(N)(=O)=O (centres undefined) and say whether its Kd is less than 500 nM.
no (0)

Take the molecule Cc1cc(N2CC(C(=O)N/N=C/c3ccc(Cl)cc3)CC2=O)cc(C)c1S(N)(=O)=O (centres undefined) and say whether its Kd is less than 500 nM.
no (0)

Take the molecule Cc1cc(S(N)(=O)=O)c(C)cc1N1CC(C(=O)O)CC1=O (centres undefined) and say whether its Kd is less than 500 nM.
no (0)

Take the molecule Cc1cc(N2CC(c3n[nH]c(=S)n3-c3ccccc3)CC2=O)cc(C)c1S(N)(=O)=O (centres undefined) and say whether its Kd is less than 500 nM.
no (0)

Take the molecule Cc1cc(N2CC(C(=O)N/N=C/c3ccccc3)CC2=O)c(Cl)c(C)c1S(N)(=O)=O (centres undefined) and say whether its Kd is less than 500 nM.
yes (1)

Next:
Take the molecule Cc1cc(N2CC(C(=O)O)CC2=O)c(Cl)c(C)c1S(N)(=O)=O (centres undefined) and say whether its Kd is less than 500 nM.
no (0)

Take the molecule Cc1cc(S(N)(=O)=O)c(C)cc1N1CC(C(=O)N/N=C/c2ccccc2)CC1=O (centres undefined) and say whether its Kd is less than 500 nM.
yes (1)

Take the molecule COC(=O)C1CC(=O)N(c2c(Br)c(C)c(S(N)(=O)=O)c(C)c2Br)C1 (centres undefined) and say whether its Kd is less than 500 nM.
no (0)

Take the molecule Cc1cc(N2CC(C(=O)N/N=C/c3ccc([N+](=O)[O-])cc3)CC2=O)c(Cl)c(C)c1S(N)(=O)=O (centres undefined) and say whether its Kd is less than 500 nM.
yes (1)

Take the molecule Cc1c(Br)c(N2CC(C(=O)NN)CC2=O)c(Br)c(C)c1S(N)(=O)=O (centres undefined) and say whether its Kd is less than 500 nM.
no (0)

---

Molecular target: Carbonic anhydrase 9 (Homo sapiens, UniProt Q16790)
Assay: Binding affinity to recombinant human CA9 by DSF-based fluorescence thermal shift assay
In plain terms, low Kd, meaning strictly below 2 µM, gives True, and everything else gives False.

Take a look at these entries with their results.
Take the compound Cc1cc(N2CC(c3n[nH]c(=S)n3-c3ccccc3)CC2=O)c(Cl)c(C)c1S(N)(=O)=O (stereo not given) and say whether its Kd is less than 2 µM.
True

Take the compound Cc1cc(N2CC(C(=O)NNC(=S)Nc3ccccc3)CC2=O)c(Cl)c(C)c1S(N)(=O)=O (stereo not given) and say whether its Kd is less than 2 µM.
True

Next:
Take the compound COC(=O)C1CC(=O)N(c2cc(C)c(S(N)(=O)=O)cc2C)C1 (stereo not given) and say whether its Kd is less than 2 µM.
True

Take the compound Cc1cc(N2CC(C(=O)N/N=C/c3ccc(Cl)cc3)CC2=O)cc(C)c1S(N)(=O)=O (stereo not given) and say whether its Kd is less than 2 µM.
False

---

Target: Carbonic anhydrase 2 (Homo sapiens)
Experiment: Binding affinity to recombinant human CA2 by DSF-based fluorescence thermal shift assay
So I've got a bunch of compounds here, and I need their Kd values.

Previously resolved entries follow.
Supply Kd value. Item: Cc1cc(N2CC(c3n[nH]c(=S)o3)CC2=O)c(Cl)c(C)c1S(N)(=O)=O (stereo not drawn)
100 nM

Supply Kd value. Item: COC(=O)C1CC(=O)N(c2ccc(S(N)(=O)=O)cc2)C1 (stereo not drawn)
150 nM

# input for lookup
Supply Kd value. Item: NS(=O)(=O)c1ccc(NC(=O)C2CC(=O)N(c3ccccc3)C2)cc1 (stereo not drawn)
88 nM

---

Biological target: Carbonic anhydrase 4 (Homo sapiens)
Sequence (P22748 whole entry): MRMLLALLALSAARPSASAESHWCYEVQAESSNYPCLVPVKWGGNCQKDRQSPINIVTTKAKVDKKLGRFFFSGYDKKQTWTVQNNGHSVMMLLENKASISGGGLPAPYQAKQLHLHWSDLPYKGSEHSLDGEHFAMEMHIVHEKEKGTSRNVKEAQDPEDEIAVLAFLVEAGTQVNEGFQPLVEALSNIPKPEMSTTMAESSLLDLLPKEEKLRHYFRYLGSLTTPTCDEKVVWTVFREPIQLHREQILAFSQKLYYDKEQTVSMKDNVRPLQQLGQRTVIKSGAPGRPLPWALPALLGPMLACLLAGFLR
Assay: Binding affinity to recombinant human CA4 by DSF-based fluorescence thermal shift assay
pKd: −log10 of the molar value.
So I've got a bunch of compounds here, and I need their pKd values.

Previously resolved entries follow.
Supply pKd value. Item: Cc1c(Br)c(N2CC(C(=O)NN)CC2=O)c(Br)c(C)c1S(N)(=O)=O (stereo not drawn)
≤ 3.70

Supply pKd value. Item: Cc1cc(N2CC(C(=O)O)CC2=O)cc(C)c1S(=O)(=O)Cl (stereo not drawn)
≤ 3.70

# input for lookup
Supply pKd value. Item: Cc1c(Br)c(N2CC(C(=O)O)CC2=O)c(Br)c(C)c1S(N)(=O)=O (stereo not drawn)
≤ 3.70

---

Target: UniProtKB P43166
Sequence (P43166 whole entry): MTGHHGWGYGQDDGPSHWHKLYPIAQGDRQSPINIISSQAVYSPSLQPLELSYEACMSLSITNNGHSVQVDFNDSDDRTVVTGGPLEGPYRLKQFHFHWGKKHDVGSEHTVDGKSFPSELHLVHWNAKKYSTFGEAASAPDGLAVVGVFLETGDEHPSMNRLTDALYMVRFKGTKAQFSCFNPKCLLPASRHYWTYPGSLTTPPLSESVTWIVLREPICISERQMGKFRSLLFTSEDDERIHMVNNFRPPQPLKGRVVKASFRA
Assay: Binding affinity to recombinant human CA7 by DSF-based fluorescence thermal shift assay
So I've got a bunch of molecules here, and I need their log10 Kd values.
Quick note: numbers are log10 of Kd, with µM as the unit.

Give measured log10 Kd for Cc1cc(N2CC(C(=O)O)CC2=O)cc(C)c1S(N)(=O)=O (stereo not given) (UniProtKB P43166).
1.30

Give measured log10 Kd for Cc1cc(N2CC(C(=O)NN)CC2=O)cc(C)c1S(N)(=O)=O (stereo not given) (UniProtKB P43166).
1.70

Give measured log10 Kd for Cc1cc(N2CC(C(=O)O)CC2=O)c(Cl)c(C)c1S(N)(=O)=O (stereo not given) (UniProtKB P43166).
-1.25

Give measured log10 Kd for Cc1cc(N2CC(C(=O)N/N=C/c3ccc(Br)cc3)CC2=O)c(Cl)c(C)c1S(N)(=O)=O (stereo not given) (UniProtKB P43166).
-1.20

For every item in the list below, what is its measured log10 Kd?
1. Cc1cc(NC(=O)C2CC(=O)N(c3ccccc3)C2)cc(C)c1S(N)(=O)=O (stereo not given)
2. Cc1cc(C)n(C(=O)C2CC(=O)N(c3cc(C)c(S(N)(=O)=O)c(C)c3)C2)n1 (stereo not given)
3. Cc1cc(N2CC(C(=O)NN3CC(C(=O)O)CC3=O)CC2=O)cc(C)c1S(N)(=O)=O (stereo not given)
4. NS(=O)(=O)c1ccc(NC(=O)C2CC(=O)N(c3cccc(Br)c3)C2)cc1 (stereo not given)
5. Cc1cc(C)n(NC(=O)C2CC(=O)N(c3cc(C)c(S(N)(=O)=O)c(C)c3)C2)n1 (stereo not given)
6. Cc1cc(N2CC(C(=O)N/N=C/c3ccc(Br)cc3)CC2=O)cc(C)c1S(N)(=O)=O (stereo not given)
7. Cc1cc(C)n(C(=O)C2CC(=O)N(c3cc(C)c(S(N)(=O)=O)c(C)c3Cl)C2)n1 (stereo not given)
8. Cc1cc(N2CC(C(=O)NN)CC2=O)c(Cl)c(C)c1S(N)(=O)=O (stereo not given)

1: 0.92; 2: 0.52; 3: 1.52; 4: -0.77; 5: 1.52; 6: 1.57; 7: -1.70; 8: -1.00

For every item in the list below, what is its measured log10 Kd?
1. NNC(=O)C1CC(=O)N(c2ccc(S(N)(=O)=O)cc2)C1 (stereo not given)
2. Cc1cc(N2CC(C(=O)N/N=C/c3ccccc3)CC2=O)c(Cl)c(C)c1S(N)(=O)=O (stereo not given)

1. -0.17
2. -1.48
